Where these numbers come from: PubChem BioAssay AID463173

- System: DeltatarO mutant
- PROTOCOL: growth inhibition of S. aureus wild type versus tarO mutant, primary screen, teichoic acid synthesis inhibitors, RN4220, OD600 (AID 463173)
- MEASUREMENT_CONDITIONS: OD600, 18 h, active compounds read low, concentration not given here
Hit rate of the full screen: of about 52,000 compounds, about 4,300 (8.3%) were called active. Many of the other results were omitted from the sample, so actives are more common in it than they were.
VALUE_KIND: survival (%)
Write down the numeric answer in % and omit the unit.

Determine its reported survival: CCCCCn1c(=O)c(C(=O)Nc2ccccc2S(N)(=O)=O)c(O)c2ccccc21 0

Give a short answer stating reported survival for CCCCn1c(=O)c(C(=O)NC)c(O)c2ccccc21 . 99

Supply survival value. Item: Cc1ccccc1-n1c(/C=C/c2ccc(O)cc2)nc2ccccc2c1=O 35

---

- Tested on: DeltatarO mutant
- PROTOCOL: growth inhibition of S. aureus wild type versus tarO mutant, primary screen, teichoic acid synthesis inhibitors, RN4220, OD600 (AID 463173)
- MEASUREMENT_CONDITIONS: OD600, 18 h, active compounds read low, concentration not given here
In all, about 52,000 compounds went through this assay and about 4,300 (8.3%) were called active. This is one part of a sample in which actives are shown more often than they occur.
Recorded survival values for a group of molecules are listed next.
Report the figure in % without appending any unit label.

Some solved cases for reference:
MOLECULE	VALUE_KIND	DISPLAY_UNIT	MEASURED_NUMBER
COc1ccc(C(c2c(O)c3ccccc3oc2=O)c2c(C)n(C)n(-c3ccccc3)c2=O)cc1 (stereo unspecified)	survival	%	57
O=C(Nc1ccon1)c1cccn(Cc2cccc([N+](=O)[O-])c2)c1=O	survival	%	102
O=C(Nc1ccc2c(c1)OCCO2)c1cccn(Cc2cccc(F)c2)c1=O	survival	%	84

Identify the reported survival for the following entry. Cc1c(C(c2ccc(F)cc2)c2c(O)c3ccccc3oc2=O)c(=O)n(-c2ccccc2)n1C (stereo unspecified) 89

Tell me its survival given Cc1ccc(Cn2cccc(C(=O)Nc3nc4ccc(C)cc4s3)c2=O)cc1 as the entry. 117

Name the recorded survival of the molecule listed here: CSc1ccc(C(c2c(O)c3ccccc3oc2=O)c2c(C)n(C)n(-c3ccccc3)c2=O)cc1 (stereo unspecified) 128

Identify survival associated with the molecule CCOc1ccc2nc(NC(=O)c3cccn(Cc4ccccc4Cl)c3=O)sc2c1 87

Give me measured survival, please, for this molecule: Cc1ccc(Cn2cccc(C(=O)Nc3ccc4c(c3)OCO4)c2=O)cc1 75

Give reported survival value for O=C1CN=C(c2ccccc2)c2cc(Cl)ccc2N1Cc1ccc(Cl)cc1 66

Please give measured survival of the following entry: COc1ccc(-c2nc(CN3C(=O)CN=C(c4ccccc4)c4ccccc43)c(C)o2)cc1 84

---

- Tested on: DeltatarO mutant
- PROTOCOL: growth inhibition of S. aureus wild type versus tarO mutant, primary screen, teichoic acid synthesis inhibitors, RN4220, OD600 (AID 463173)
- MEASUREMENT_CONDITIONS: OD600, 18 h, active compounds read low, concentration not given here
About 4,300 (8.3%) of roughly 52,000 compounds were called active. The full list was thinned out, with actives kept by preference.
Items are presented alongside their recorded survival.

Some entries whose results are on file:
MOL	survival
Nc1c(C(=O)Nc2ccc(OC(F)(F)F)cc2)sc2nc3c(cc12)N1CCC3CC1	99% (inactive)
Nc1c(C(=O)Nc2ccc(Cl)cc2)sc2nc3c(cc12)N1CCC3CC1	55% (inactive)
CCCC1=Nc2cc(C(=O)NCCCN(CC)CC)ccc2Sc2ccccc21	138% (inactive)

# evaluate next
Note down survival recorded for Nc1c(C(=O)Nc2ccc(Br)cc2F)sc2nc3c(cc12)N1CCC3CC1 132% (inactive)
